# experiment.summary: yeast growth modulation, basal conditions, primary screen, YJM789 clinical isolate, OD600, 24 h (AID 1089);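 further: growth of clinical yeast isolate S. cerevisiae YJM 789 seeded 1000 cells per well; test concentration not given here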
# experimental.parameters: S. cerevisiae YJM789 growth, higher = more signal, called active from +8 up or from −8 down
reported.endpoint: z-score
Respond using a number only.

Could you tell me which z-score is on file for CS(=O)(=O)CCOC(=O)C1=CC(CCCO)=CC(C2CC2)N(Cc2sc3ccccc3c2Cl)C=C1C(=O)OCCS(C)(=O)=O (centres undefined) ?
-0.853

Try this molecule next: "C=CC[C@H](O)c1ccc(O)c2ccccc12"
-7.13

Try the molecule "COCCOC(=O)N1C(=O)[C@@]2(c3cc(C#CC4(O)CCCCCC4)ccc31)[C@H](C(N)=O)[C@H]1C(=O)O[C@H](c3ccccc3)[C@H](c3ccccc3)N1[C@@H]2c1ccc(OCCO)cc1"
1.73

// query: "COC(=O)C(CC#Cc1ccc2c(c1)[C@]1(C(=O)N2)[C@H](c2ccc(OCCO)cc2)N2[C@H](c3ccccc3)[C@H](c3ccccc3)OC(=O)[C@H]2[C@@H]1C(N)=O)C(=O)OC"
1.76

Check "O=C1N(Cc2ccccc2)c2ccccc2C[C@@]12N=C(c1ccc(OCCCO)cc1)O[C@H]2c1ccccc1" too.
-0.789

Please answer likewise for "CC(C)(C)OC(=O)CC[C@]1(C(N)=O)N=C(c2ccc(OCCCO)cc2)O[C@H]1c1ccccc1N=[N+]=[N-]"
1.37

"O=C1O[C@@H](c2ccccc2)[C@@H](c2ccccc2)N2[C@@H](c3ccc(OCCO)cc3)[C@]3(C(=O)Nc4ccc(C#CC5=CCCCC5)cc43)[C@@H](C(=O)Nc3nc4ccccc4s3)[C@H]12" ?
2.22

# repeat for "CO[C@H]1O[C@H](CO)[C@@H](OC(=O)Nc2cccc(F)c2)[C@H](OC(=O)Nc2ccc3c(c2)OCO3)[C@@H]1OC(=O)Nc1ccc2c(c1)OCO2"
1.79

Param item: "CC(C)C[C@@H]1NC(=O)[C@@H]2C[C@H](C(=O)NCCCCCNC(=O)CS)[C@H](c3ccc(O)cc3)N2C1=O"
-2.18

Another molecule to look at: "COC(=O)[C@@]1(Cc2ccc(F)cc2)[C@H]2c3cc(C(=O)N(C)C)n(CCF)c3C[C@H]2CN1C(=O)c1ccccc1"
-2.02

# repeat for "COCCOC(=O)N1C(=O)[C@@]2(c3cc(C#CCC(C(=O)OC)C(=O)OC)ccc31)[C@H](C(N)=O)[C@H]1C(=O)O[C@H](c3ccccc3)[C@H](c3ccccc3)N1[C@@H]2c1ccccc1OCCO"
-2.36

Also "CN(C)CCCC[C@@H]1NC(=O)[C@H]2C[C@@H](C(=O)NCCCCCCNC(=O)CS)[C@@H](c3cccc(OCCO)c3)N2C1=O" , if possible.
-0.522

Same question, N#Cc1ccc(NN2C(C(O)c3ccc(B(O)O)cc3)C=CC3CN(c4ccccc4)C(=O)C32)cc1 (centres undefined) this time
0.587

# repeat for O=C1C2C=CC(C(O)C(c3ccccc3)c3ccccc3)N(Nc3ccccc3F)C2C(=O)N1c1ccccc1 (centres undefined)
0.504
